The measured values listed here are drawn from PubChem BioAssay (EPA / NIEHS).

Read-out: Cyclin D2 (CCND2), CCND2 (gene 894)
Test: LTEA_HepaRG_CCND2: Life Technologies and Expression Analysis (LTEA) Assay for Cyclin D2 (CCND2) using HepaRG (AID 2283449);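 further: CCND2 transcript measured by TaqMan qRT-PCR and normalised to three housekeeping genes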
Details: mRNA level, 48 h; actives raise or lower the signal
Active and inactive are the calls of the source. How the source made its calls: active means hit-call score of the fitted dose curve at least 0.9, where 1 is the maximum; inactive means score below 0.9.
Possible outcomes: YES = active, NO = inactive

INSERT INTO measurements (compound_structure_string, assigned_category) VALUES
  ('Cc1cccc(C)c1N', 'NO'),
  ('CCCCCCCCCC[N+](C)(C)CCCCCCCCCC', 'NO'),
  ('Nn1cnnc1', 'NO'),
  ('COS(=O)(=O)OC', 'NO'),
  ('Oc1ccc(Cl)cc1Cl', 'NO'),
  ('CCC(=O)O[C@H]1CC[C@H]2[C@@H]3CCC4=CC(=O)CC[C@]4(C)[C@H]3CC[C@]12C', 'NO'),
  ('CCOP(=S)(OCC)SCSC(C)(C)C', 'NO'),
  ('ClC(Cl)=C(c1ccc(Cl)cc1)c1ccc(Cl)cc1', 'NO'),
  ('O=C(NC(=O)c1c(F)cccc1F)Nc1cc(Cl)c(OC(F)(F)C(F)F)c(Cl)c1', 'NO'),
  ('NS(=O)(=O)C(F)(F)C(F)(F)C(F)(F)C(F)(F)C(F)(F)C(F)(F)C(F)(F)C(F)(F)F', 'NO'),
  ('N#Cc1ccc(N(CC(N)=O)CC(F)(F)F)cc1C(F)(F)F', 'NO'),
  ('Oc1c(Cl)c(Cl)c(Cl)c(Cl)c1Cl', 'NO'),
  ('CCCCCCCCCc1ccc(O)cc1', 'NO'),
  ('CC(C)(O)C(=O)Nc1ccc([N+](=O)[O-])c(C(F)(F)F)c1', 'YES'),
  ('O=C(O)C(F)(F)C(F)(F)C(F)(F)C(F)(F)C(F)(F)C(F)(F)C(F)(F)C(F)(F)C(F)(F)F', 'NO'),
  ('Oc1ccc(C(c2ccc(O)cc2)(C(F)(F)F)C(F)(F)F)cc1', 'YES'),
  ('ClC1=C(Cl)[C@]2(Cl)[C@@H]3[C@@H]4C[C@@H]([C@H]5O[C@@H]45)[C@@H]3[C@@]1(Cl)C2(Cl)Cl', 'NO'),
  ('O=S(=O)(O)C(F)(F)C(F)(F)C(F)(F)C(F)(F)C(F)(F)C(F)(F)F', 'NO'),
  ('O=C(O)C(F)(F)C(F)(F)C(F)(F)C(F)(F)C(F)(F)F', 'NO'),
  ('CN(C)CCO', 'NO'),
  ('c1cc2ccc3cccc4ccc(c1)c2c34', 'YES'),
  ('C=CC(N)=O', 'NO'),
  ('CC#Cc1cc(C)nc(Nc2ccccc2)n1', 'NO'),
  ('O=NN(c1ccccc1)c1ccccc1', 'NO');
